IC50 tested on human cytoplasmic dynein 2 (Homo sapiens (Human), UniProt Q8NCM8): recorded values
Sequence (Q8NCM8 1091-4307 limits assumed): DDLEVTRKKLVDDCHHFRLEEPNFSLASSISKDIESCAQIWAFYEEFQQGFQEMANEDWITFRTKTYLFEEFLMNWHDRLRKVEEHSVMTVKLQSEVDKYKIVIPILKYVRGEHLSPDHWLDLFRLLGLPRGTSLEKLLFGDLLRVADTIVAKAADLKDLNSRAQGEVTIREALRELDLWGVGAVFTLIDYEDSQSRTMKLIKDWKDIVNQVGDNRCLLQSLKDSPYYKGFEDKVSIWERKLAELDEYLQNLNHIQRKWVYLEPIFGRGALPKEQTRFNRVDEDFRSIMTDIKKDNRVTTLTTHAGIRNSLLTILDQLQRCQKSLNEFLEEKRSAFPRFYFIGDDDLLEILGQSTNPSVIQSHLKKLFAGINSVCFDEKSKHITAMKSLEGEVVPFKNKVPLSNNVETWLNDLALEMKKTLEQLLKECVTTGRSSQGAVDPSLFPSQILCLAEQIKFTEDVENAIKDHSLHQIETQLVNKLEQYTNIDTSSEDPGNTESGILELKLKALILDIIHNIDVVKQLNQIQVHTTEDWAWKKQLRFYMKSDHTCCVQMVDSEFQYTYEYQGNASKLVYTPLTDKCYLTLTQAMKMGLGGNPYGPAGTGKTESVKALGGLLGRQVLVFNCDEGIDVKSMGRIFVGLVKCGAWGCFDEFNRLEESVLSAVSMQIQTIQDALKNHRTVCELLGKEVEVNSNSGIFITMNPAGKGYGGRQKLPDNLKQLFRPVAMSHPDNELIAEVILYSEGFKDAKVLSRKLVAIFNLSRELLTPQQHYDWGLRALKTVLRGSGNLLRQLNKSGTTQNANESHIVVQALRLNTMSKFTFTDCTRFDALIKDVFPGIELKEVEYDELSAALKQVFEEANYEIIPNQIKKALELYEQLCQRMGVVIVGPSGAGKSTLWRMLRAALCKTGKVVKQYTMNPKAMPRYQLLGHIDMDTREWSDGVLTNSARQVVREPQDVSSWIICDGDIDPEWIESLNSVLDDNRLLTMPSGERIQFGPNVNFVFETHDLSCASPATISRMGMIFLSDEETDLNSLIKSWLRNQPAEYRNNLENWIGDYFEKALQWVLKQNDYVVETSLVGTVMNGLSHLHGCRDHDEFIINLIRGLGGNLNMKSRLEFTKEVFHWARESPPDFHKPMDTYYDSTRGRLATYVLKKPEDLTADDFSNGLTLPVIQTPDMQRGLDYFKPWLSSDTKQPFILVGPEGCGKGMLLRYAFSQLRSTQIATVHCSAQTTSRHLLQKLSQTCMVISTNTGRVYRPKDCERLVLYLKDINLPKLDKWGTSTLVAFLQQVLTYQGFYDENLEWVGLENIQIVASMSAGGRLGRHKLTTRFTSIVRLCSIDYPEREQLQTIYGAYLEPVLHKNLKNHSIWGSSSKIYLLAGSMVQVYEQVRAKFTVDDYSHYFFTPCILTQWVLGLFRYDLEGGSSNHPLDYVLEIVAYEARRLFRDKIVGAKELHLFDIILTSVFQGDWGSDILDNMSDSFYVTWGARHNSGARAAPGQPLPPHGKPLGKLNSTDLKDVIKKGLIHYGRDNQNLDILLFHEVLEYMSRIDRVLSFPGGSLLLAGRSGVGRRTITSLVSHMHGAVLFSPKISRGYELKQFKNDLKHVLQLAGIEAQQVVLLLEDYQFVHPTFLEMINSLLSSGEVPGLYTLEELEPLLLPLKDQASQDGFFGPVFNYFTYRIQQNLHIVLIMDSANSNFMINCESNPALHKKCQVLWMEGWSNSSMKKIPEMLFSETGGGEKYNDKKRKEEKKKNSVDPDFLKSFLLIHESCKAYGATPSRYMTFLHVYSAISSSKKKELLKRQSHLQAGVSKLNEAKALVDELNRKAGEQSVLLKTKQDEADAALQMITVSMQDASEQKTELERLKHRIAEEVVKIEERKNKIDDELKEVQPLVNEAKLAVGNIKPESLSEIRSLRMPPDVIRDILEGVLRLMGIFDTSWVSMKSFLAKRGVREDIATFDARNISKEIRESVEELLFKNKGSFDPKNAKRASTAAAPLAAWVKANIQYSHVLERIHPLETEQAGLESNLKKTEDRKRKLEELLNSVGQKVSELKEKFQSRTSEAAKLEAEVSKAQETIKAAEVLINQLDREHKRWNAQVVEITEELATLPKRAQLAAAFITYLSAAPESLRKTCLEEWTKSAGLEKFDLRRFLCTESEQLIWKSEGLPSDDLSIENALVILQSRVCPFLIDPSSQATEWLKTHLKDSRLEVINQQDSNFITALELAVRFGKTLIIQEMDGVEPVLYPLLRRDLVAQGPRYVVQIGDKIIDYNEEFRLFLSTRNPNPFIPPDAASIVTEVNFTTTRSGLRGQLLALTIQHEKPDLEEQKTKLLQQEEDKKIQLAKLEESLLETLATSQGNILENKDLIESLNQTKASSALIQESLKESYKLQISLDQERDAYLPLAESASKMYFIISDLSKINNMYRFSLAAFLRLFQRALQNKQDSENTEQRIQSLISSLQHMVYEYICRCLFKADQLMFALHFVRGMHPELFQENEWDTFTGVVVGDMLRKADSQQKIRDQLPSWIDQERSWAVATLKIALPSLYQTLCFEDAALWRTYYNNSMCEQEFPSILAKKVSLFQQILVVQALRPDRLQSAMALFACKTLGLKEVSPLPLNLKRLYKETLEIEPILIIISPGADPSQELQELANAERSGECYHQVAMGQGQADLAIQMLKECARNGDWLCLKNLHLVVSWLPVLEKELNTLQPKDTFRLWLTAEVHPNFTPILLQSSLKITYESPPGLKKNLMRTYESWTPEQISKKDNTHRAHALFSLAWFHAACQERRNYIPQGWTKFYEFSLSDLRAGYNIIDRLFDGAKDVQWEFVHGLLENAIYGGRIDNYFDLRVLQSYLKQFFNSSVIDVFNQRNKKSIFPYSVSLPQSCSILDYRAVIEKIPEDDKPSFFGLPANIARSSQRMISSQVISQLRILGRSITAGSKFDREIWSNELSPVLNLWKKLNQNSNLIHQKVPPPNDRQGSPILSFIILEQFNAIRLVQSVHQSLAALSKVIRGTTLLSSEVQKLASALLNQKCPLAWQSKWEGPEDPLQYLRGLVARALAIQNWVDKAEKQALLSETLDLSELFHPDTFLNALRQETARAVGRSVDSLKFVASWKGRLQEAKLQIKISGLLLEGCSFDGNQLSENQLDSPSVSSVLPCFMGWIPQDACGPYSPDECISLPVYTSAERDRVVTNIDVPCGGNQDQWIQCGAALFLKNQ

# compound, IC50 (nM)
data = [
    ("N#Cc1c(C2(c3ccc(Cl)cc3)CC2)nn2c1[nH]c(=O)c1cc(I)ccc12 [Example 5]", 2600),
    ("N#Cc1c(C2CCC(c3ccc(Cl)cc3)CC2)nn2c(=O)c3ccccc3[nH]c12 (centres unmarked) [Example 27]", 620),
]

---

Listed here are molecules together with their documented pIC50.
tested on: Hedgehog pathway activity; assay: Shh-Light luciferase reporter assay of Hedgehog pathway activity (Shh-Light2 cells, SAG-stimulated); assay type: cell-based; details: Table 2, SAG 500 nM, 28-32 hr treatment, read-out: Shh-light IC50
pIC50: −log10 of the molar value.

# molecule, assaySystem, pIC50
data = [
    ("N#Cc1c(C2(c3ccc(Cl)cc3)CC2)nn2c(=O)c3cc(F)ccc3[nH]c12", "Hedgehog pathway activity", 5.80),
    ("N#Cc1c(C2CCC(c3ccc(Cl)cc3)CC2)nn2c(=O)c3cc(C4CC4)ccc3[nH]c12 (centres unmarked)", "Hedgehog pathway activity", 6.47),
    ("N#Cc1c(C2CCC(c3ccc(Cl)cc3)CC2)nn2c(=O)c3cc(Br)ccc3[nH]c12 (centres unmarked)", "Hedgehog pathway activity", 6.17),
    ("N#Cc1c(C2CCC(c3ccc(Cl)cc3)CC2)nn2c(=O)c3ccccc3[nH]c12 (centres unmarked)", "Hedgehog pathway activity", 6.22),
    ("N#Cc1c(C2(c3ccc(Cl)cc3)CC2)nn2c(=O)c3cc(Br)ccc3[nH]c12", "Hedgehog pathway activity", 6.54),
    ("N#Cc1c(C2CCC(c3ccc(Cl)cc3)CC2)nn2c(=O)c3cc(Cl)ccc3[nH]c12 (centres unmarked)", "Hedgehog pathway activity", 6.22),
    ("COc1ccc2[nH]c3c(C#N)c(-c4ccc(Cl)cc4Cl)nn3c(=O)c2c1", "Hedgehog pathway activity", 6.23),
    ("N#Cc1c(-c2ccc(Cl)cc2Cl)nn2c(=O)c3ccccc3[nH]c12", "Hedgehog pathway activity", 5.70),
]
